Where these numbers come from: a melting point compilation (Tetko et al.)

// values below are reported melting point

Solved entries (count: 8):
{"molecule": "Cc1ccn(-c2ccc(Cl)nn2)n1", "readout value": "169 to 171 °C"}
{"molecule": "CC(=O)c1cccc(S(=O)(=O)N(C)C)c1", "readout value": "74 to 76 °C"}
{"molecule": "NC(=O)CNCc1ccc(OCc2ccccc2)cc1", "readout value": "140 to 142 °C"}
{"molecule": "COc1cc(=O)[nH]c(NC(=O)CCl)n1", "readout value": "189 to 191 °C"}
{"molecule": "COc1cc(C=O)cc(OC)c1OC(C)=O", "readout value": "115 to 117 °C"}
{"molecule": "COc1cc(C=O)c(-c2ccccc2)cc1OC", "readout value": "133 to 135 °C"}
{"molecule": "O=Cc1cc(F)cc(F)c1", "readout value": "17 to 19 °C"}
{"molecule": "Cc1ccccc1OCc1nnc(S)[nH]1", "readout value": "110 to 112 °C"}

query: Which melting point is listed for COc1ccc2c(O)c(C(=O)O)cnc2c1 ?
result: 269 to 271 °C

query: Which melting point is listed for NC(=O)C1CCN(CCc2ccc(N)cc2)CC1 ?
result: 223 to 225 °C

query: Which melting point is listed for Cn1ccnc1C(N)c1ccccc1 (stereo not drawn) ?
result: 51 to 53 °C

query: Which melting point is listed for CC(C)Cn1[nH]ccc1=NC(=O)OCC(F)(F)F ?
result: 63 to 65 °C

query: Which melting point is listed for CC(C(=O)Nc1cccc(N)c1)n1cccn1 (stereo not drawn) ?
result: 135 to 137 °C

query: Which melting point is listed for CCN(CC)C(=O)c1cccc(N)c1 ?
result: 81 to 83 °C

query: Which melting point is listed for CNS(=O)(=O)c1cc(C(=O)O)ccc1OC ?
result: 221 to 223 °C

query: Which melting point is listed for NC(=O)c1cccc(N)n1 ?
result: 141 to 143 °C

query: Which melting point is listed for [N-]=[N+]=Nc1cccc2ncccc12 ?
result: 61 to 63 °C
